Provide the reported half-life of each item.
measurement_notes: Concentration and elimination of ADP and its metabolites in liver, kidney, muscle, fat/skin after oral ^3H-ADP for 7 d
Format: in vivo, rats
details: rat, tissues (liver, kidney, muscle, fat/skin), po, 5 mg/kg; rats tissues; read-out: t1/2 of the individual compound, range over tissues

Query: Fill blank: measured half-life of the compound COc1cc(Cc2cnc(N)nc2N)cc(OC)c1N(C)C is ____.
Result: 62.2 to 100 h

Query: Quick check: half-life of CNc1c(OC)cc(Cc2cnc(N)nc2N)cc1OC ?
Result: 50.6 to 64.6 h

---

measurement_notes: Metabolite profiling of ADP in excreta, plasma and bile (LC-v.ARC/MS-IT-TOF)
Format: in vivo, rats
details: Rat, Urine, single oral 5 mg/kg b.w. ^3H-ADP
property_name: Average percentage of ADP and its metabolites in total dose (%)
Return type: number; implicit unit %.

Query: Entry CNc1c(OC)cc(Cc2cnc(N)nc2N)cc1OC has what Average percentage of ADP and its metabolites in total dose?
Result: 13.8

Query: What does the data say about its Average percentage of ADP and its metabolites in total dose? Entry: COc1cc(Cc2cnc(N)nc2N)cc(OC)c1N
Result: 1.1

Query: Return reported Average percentage of ADP and its metabolites in total dose; argument: COc1cc(Cc2cnc(N)nc2N)cc(OC)c1N(C)C
Result: 61.3

Query: Please give the measured Average percentage of ADP and its metabolites in total dose for this molecule: COc1cc(C(O)c2cnc(N)nc2N)cc(O)c1N(C)C (stereo not shown)
Result: 0.5

---

measurement_notes: Concentration and elimination of ADP and its metabolites in liver, kidney, muscle, fat/skin after oral ^3H-ADP for 7 d
Format: in vivo, swine
details: swine, muscle, oral, 5 mg/kg b.w.
property_name: concentration at 7 d (ng/g)
Expressed in ng/g, but write only the number.

Query: Entry COc1cc(Cc2cnc(N)nc2N)cc(OC)c1N(C)C : reported concentration at 7 d = ?
Result: 70

---

measurement_notes: Concentration and elimination of ADP and its metabolites in liver, kidney, muscle, fat/skin after oral ^3H-ADP for 7 d
Type: in vivo, swine
details: pig, po, 5 mg/kg; kidney and liver of swine and rat; read-out: t1/2 of the individual compound, range over tissues
property_name: half-life

Query: Which value of half-life has been reported for COc1cc(Cc2cnc(N)nc2N)cc(OC)c1N in the records?
Result: 10.1 to 38.6 h

---

measurement_notes: Concentration and elimination of ADP and its metabolites in liver, kidney, muscle, fat/skin after oral ^3H-ADP for 7 d
Assay type: in vivo, carp
details: po; carp skin, after 5 mg/kg b. w. for 7 days; read-out: t1/2 of the individual compound (converted)
Could you please report measured half-life for the items listed next?
Express it in h; write the number only.

Query: Please look up its half-life: COc1cc(Cc2cnc(N)nc2N)cc(OC)c1N(C)C [A0]
Result: 57.6

Query: half-life for CNc1c(OC)cc(Cc2cnc(N)nc2N)cc1OC [A1, N-monodesmethyl-ADP] ?
Result: 47.8

---

measurement_notes: Concentration and elimination of ADP and its metabolites in liver, kidney, muscle, fat/skin after oral ^3H-ADP for 7 d
Type: in vivo, rats
details: rat, fat, oral, 5 mg/kg b. w.
property_name: concentration at 7 d (ng/g)
Write down the numeric answer in ng/g and omit the unit.

Query: Find the recorded concentration at 7 d belonging to COc1cc(Cc2cnc(N)nc2N)cc(OC)c1N(C)C [A0] and report it.
Result: 30

---

measurement_notes: Concentration and elimination of ADP and its metabolites in liver, kidney, muscle, fat/skin after oral ^3H-ADP for 7 d
Assay type: in vivo, carp
details: carp, kidney, oral, 5 mg/kg b.w.
property_name: concentration at 14 d (ng/g)
Report the value in ng/g with no unit label.

Query: Fill in: concentration at 14 d of COc1cc(Cc2cnc(N)nc2N)cc(OC)c1N(C)C is ___
Result: 680

---

measurement_notes: Concentration and elimination of ADP and its metabolites in liver, kidney, muscle, fat/skin after oral ^3H-ADP for 7 d
Assay type: in vivo, carp
details: carp, liver, oral, 5 mg/kg b. w.
Exercise: state measured concentration at 1 d for each of the compounds provided.
I only need the number, in ng/g, no unit after it.

Query: Reported concentration at 1 d, compound CNc1c(OC)cc(Cc2cnc(N)nc2N)cc1OC : ____
Result: 770

Query: What measured concentration at 1 d goes with COc1cc(Cc2cnc(N)nc2N)cc(OC)c1N(C)C ?
Result: 5750

Query: # concentration at 1 d lookup, item COc1cc(Cc2cnc(N)nc2N)cc(OC)c1N
Result: 240

---

For each record, write down the corresponding concentration at 7 d.
measurement_notes: Concentration and elimination of ADP and its metabolites in liver, kidney, muscle, fat/skin after oral ^3H-ADP for 7 d
Format: in vivo, carp
details: carp, liver, oral, 5 mg/kg b. w.
Supply the numeric figure in ng/g, leaving out any unit text.

Query: I'd like to know its concentration at 7 d. The molecule in question is COc1cc(Cc2cnc(N)nc2N)cc(OC)c1N(C)C
Result: 390

Query: concentration at 7 d lookup needed for CNc1c(OC)cc(Cc2cnc(N)nc2N)cc1OC , thanks.
Result: 20

---

measurement_notes: Concentration and elimination of ADP and its metabolites in liver, kidney, muscle, fat/skin after oral ^3H-ADP for 7 d
Type: in vivo, rats
details: rat, kidney, oral, 5 mg/kg b.w.
property_name: concentration at 3 d (ng/g)
Answer in ng/g, number only, no unit symbol.

Query: Which value of concentration at 3 d has been reported for COc1cc(Cc2cnc(N)nc2N)cc(OC)c1N(C)C [A0] in the records?
Result: 590

Query: // lookup concentration at 3 d for CNc1c(OC)cc(Cc2cnc(N)nc2N)cc1OC [A1, N-monodesmethyl-ADP]
Result: 120

Query: Entry under review: COc1cc(Cc2cnc(N)nc2N)cc(OC)c1N [A2, N-didesmethyl-ADP] . Reported concentration at 3 d?
Result: 20

---

measurement_notes: Metabolite profiling of ADP in excreta, plasma and bile (LC-v.ARC/MS-IT-TOF)
Type: in vivo, swine
details: Swine, Urine, single oral 5 mg/kg b.w. ^3H-ADP
Assignment: determine reported Average percentage of ADP and its metabolites in total dose for the given compounds.
Lab book: enter the figure in %, no units written.

Query: Endpoint output: Average percentage of ADP and its metabolites in total dose of COc1cc(C(O)c2cnc(N)nc2N)cc(O)c1N(C)C (stereo not drawn) [A6, 3-OH-α-OH-ADP] . Value?
Result: 3.7

Query: # input compound: COc1cc(Cc2cnc(N)nc2N)cc(O)c1N(C)C [A3, 3-OH-ADP] ; wanted: its Average percentage of ADP and its metabolites in total dose
Result: 5.4

Query: Average percentage of ADP and its metabolites in total dose; subject: COc1cc(Cc2cnc(N)nc2N)cc(OC)c1N [A2, N-didesmethyl-ADP]
Result: 11.3

Query: What measured Average percentage of ADP and its metabolites in total dose goes with CNc1c(OC)cc(Cc2cnc(N)nc2N)cc1OC [A1, N-monodesmethyl-ADP] ?
Result: 13.3

Query: Tell me the measured Average percentage of ADP and its metabolites in total dose of CNc1c(O)cc(Cc2cnc(N)nc2N)cc1OC [A7, 4-methylamino-3-OH-ADP] , please.
Result: 1.8

Query: For the compound COc1cc(C(O)c2cnc(N)nc2N)cc(OC)c1N(C)C (stereo not drawn) [A8, α-OH-ADP] , what Average percentage of ADP and its metabolites in total dose is on record?
Result: 1.0

Query: Recorded Average percentage of ADP and its metabolites in total dose for CNc1c(OC)cc(C(O)c2cnc(N)nc2N)cc1OC (stereo not drawn) [A5, 4-methylamino-α-OH-ADP] , please?
Result: 1.9

Query: Name the recorded Average percentage of ADP and its metabolites in total dose for COc1cc(Cc2cnc(N)nc2N)cc(OC)c1N(C)C [A0] .
Result: 33.4

Query: Tell me the measured Average percentage of ADP and its metabolites in total dose of CNc1c(O)cc(C(O)c2cnc(N)nc2N)cc1OC (stereo not drawn) [A4, 3-OH-4-methylamino-ADP] , please.
Result: 3.1

---

measurement_notes: Concentration and elimination of ADP and its metabolites in liver, kidney, muscle, fat/skin after oral ^3H-ADP for 7 d
Format: in vivo, broilers
details: broilers, fat, oral, 5 mg/kg b. w.
property_name: concentration at 1 d (ng/g)
Return type: number; implicit unit ng/g.

Query: Item under review: CNc1c(OC)cc(Cc2cnc(N)nc2N)cc1OC . Reported concentration at 1 d?
Result: 60

Query: concentration at 1 d; subject: COc1cc(Cc2cnc(N)nc2N)cc(OC)c1N(C)C
Result: 180

---

measurement_notes: Concentration and elimination of ADP and its metabolites in liver, kidney, muscle, fat/skin after oral ^3H-ADP for 7 d
Type: in vivo, carp
details: carp, skin, oral, 5 mg/kg b. w.
property_name: concentration at 1 d (ng/g)
Give the quantity in ng/g, number only.

Query: For the compound COc1cc(Cc2cnc(N)nc2N)cc(OC)c1N , what concentration at 1 d is on record?
Result: 50

Query: concentration at 1 d; subject: CNc1c(OC)cc(Cc2cnc(N)nc2N)cc1OC
Result: 450

Query: Field request: concentration at 1 d | item: COc1cc(Cc2cnc(N)nc2N)cc(OC)c1N(C)C
Result: 2320

The measurements presented in this section are drawn from paper PMC4738305.
